All values here come from patent US20260248787A9.

experiment: Phase 1/2 clinical study, plasma pharmacokinetic evaluation; assay type: in vivo, human; conditions: human, plasma, oral, 200 mg, 200 mg BID Arm A, Cycle 1 Day 1, N=4, mean
REPORTED_ENDPOINT: AUC(0-t)

Enquiry: Item under review: C=C1C[C@@H]2CC[C@H]1[C@@H](C(=O)N1CCC3(CC1)CN(c1ncncc1Oc1ccc(F)cc1C(=O)N(C(C)C)C(C)C)C3)N2 [the present compound] . Reported AUC(0-t)?
Return: 9650 ng·h/mL

====

experiment: Phase 1/2 clinical study, plasma pharmacokinetic evaluation; format: in vivo, human; settings: human, plasma, oral, Arm B, 40-200 mg BID (up to 42 patients); read-out: Mean apparent half-life
REPORTED_ENDPOINT: half-life

Enquiry: Item C=C1C[C@@H]2CC[C@H]1[C@@H](C(=O)N1CCC3(CC1)CN(c1ncncc1Oc1ccc(F)cc1C(=O)N(C(C)C)C(C)C)C3)N2 [the present compound] has what recorded half-life?
Return: 180 to 420 min

====

assay: Phase 1/2 clinical study, plasma pharmacokinetic evaluation; format: in vivo, human; settings: human, plasma, oral, 40 mg, 40 mg BID Arm B, C1D1, N=4, mean
REPORTED_ENDPOINT: Cmax

Enquiry: Form field: reported Cmax of C=C1C[C@@H]2CC[C@H]1[C@@H](C(=O)N1CCC3(CC1)CN(c1ncncc1Oc1ccc(F)cc1C(=O)N(C(C)C)C(C)C)C3)N2
Return: 976 ng/mL

====

experiment: Phase 1/2 clinical study, plasma pharmacokinetic evaluation; type: in vivo, human; conditions: human, plasma, oral, 60 mg, Table 15 cut-off; 60 mg BID Arm B, Cycle 2 Day 1, N=4, mean
REPORTED_ENDPOINT: Cmax (ng/mL)
Give the number; ng/mL is assumed, so skip it.

Enquiry: Need Cmax, item C=C1C[C@@H]2CC[C@H]1[C@@H](C(=O)N1CCC3(CC1)CN(c1ncncc1Oc1ccc(F)cc1C(=O)N(C(C)C)C(C)C)C3)N2
Return: 751

====

test: Phase 1/2 clinical study, plasma pharmacokinetic evaluation; format: in vivo, human; settings: human, plasma, oral, 100 mg, 100 mg BID Arm A, C2D1, N=1
REPORTED_ENDPOINT: AUC(0-t) (ng·h/mL)
// return numeric value only (unit: ng·h/mL, not printed)

Enquiry: I'd like to know its AUC(0-t). The molecule in question is C=C1C[C@@H]2CC[C@H]1[C@@H](C(=O)N1CCC3(CC1)CN(c1ncncc1Oc1ccc(F)cc1C(=O)N(C(C)C)C(C)C)C3)N2
Return: 6060

====

Experiment: Phase 1/2 clinical study, plasma pharmacokinetic evaluation
Type: in vivo, human
Details: human, plasma, oral, 40 mg, 40 mg BID Arm A, C1D1, N=2, mean; read-out: t1/2 (converted)
Procedure: In the present test of the present compound, PK samples have been collected in up to 24 patients dosed in dose groups of 40, 80, 100, and 120 mg BID Arm A, and in dose groups of 40 and 60 mg BID Arm B (Table 6). Large preliminary PK inter-patient variability was observed. (1) In the present study, PK samples have been collected in up to 42 patients dosed in dose groups of 40, 80, 100, 120, 140 and 200 mg BID Arm A, and in dose groups of 40, 60, 100, and 200 mg BID Arm B (Table 15). […]
REPORTED_ENDPOINT: half-life
A complete answer gives the number followed by the unit.

Enquiry: Sample C=C1C[C@@H]2CC[C@H]1[C@@H](C(=O)N1CCC3(CC1)CN(c1ncncc1Oc1ccc(F)cc1C(=O)N(C(C)C)C(C)C)C3)N2 — what was its half-life?
Return: 3.35 h

====

experiment: Phase 1/2 clinical study, plasma pharmacokinetic evaluation; format: in vivo, human; settings: human, plasma, oral, 100 mg, Table 15 cut-off; 100 mg BID Arm A, Cycle 1 Day 1, N=2, mean
REPORTED_ENDPOINT: Cmax (µg/mL)
Number in µg/mL, nothing else.

Enquiry: What Cmax value was documented for this compound, C=C1C[C@@H]2CC[C@H]1[C@@H](C(=O)N1CCC3(CC1)CN(c1ncncc1Oc1ccc(F)cc1C(=O)N(C(C)C)C(C)C)C3)N2 ?
Return: 1.38

====

Experiment: Phase 1/2 clinical study, plasma pharmacokinetic evaluation
Format: in vivo, human
Conditions: human, plasma, oral, 100 mg, Cycle 2 Day 1; 100 mg BID Arm B (with azole); N=4; mean
Description: In the present test of the present compound, PK samples have been collected in up to 24 patients dosed in dose groups of 40, 80, 100, and 120 mg BID Arm A, and in dose groups of 40 and 60 mg BID Arm B (Table 6). Large preliminary PK inter-patient variability was observed. (1) In the present study, PK samples have been collected in up to 42 patients dosed in dose groups of 40, 80, 100, 120, 140 and 200 mg BID Arm A, and in dose groups of 40, 60, 100, and 200 mg BID Arm B (Table 15). […]
REPORTED_ENDPOINT: Cmax (ng/mL)
Please give a number only; it is taken to be in ng/mL.

Enquiry: Would you kindly share the measured Cmax for C=C1C[C@@H]2CC[C@H]1[C@@H](C(=O)N1CCC3(CC1)CN(c1ncncc1Oc1ccc(F)cc1C(=O)N(C(C)C)C(C)C)C3)N2 [the present compound] ?
Return: 1810

====

experiment: Phase 1/2 clinical study, plasma pharmacokinetic evaluation; assay type: in vivo, human; conditions: human, plasma, oral, 100 mg, 100 mg BID Arm B, Cycle 2 Day 1, N=4, mean
REPORTED_ENDPOINT: AUC(0-t) (ng·h/mL)
Write the value in ng·h/mL as a bare number.

Enquiry: Request the reported AUC(0-t) associated with C=C1C[C@@H]2CC[C@H]1[C@@H](C(=O)N1CCC3(CC1)CN(c1ncncc1Oc1ccc(F)cc1C(=O)N(C(C)C)C(C)C)C3)N2
Return: 8350

====

assay: Phase 1/2 clinical study, plasma pharmacokinetic evaluation; format: in vivo, human; conditions: human, plasma, oral, 60 mg, Cycle 1 Day 1; 60 mg BID Arm B (with azole); N=6; mean
REPORTED_ENDPOINT: AUC(0-t) (ng·h/mL)
Quick note: give the figure in ng·h/mL, leave out the unit.

Enquiry: Please give the measured AUC(0-t) for this molecule: C=C1C[C@@H]2CC[C@H]1[C@@H](C(=O)N1CCC3(CC1)CN(c1ncncc1Oc1ccc(F)cc1C(=O)N(C(C)C)C(C)C)C3)N2 [the present compound]
Return: 4240

====

experiment: Phase 1/2 clinical study, plasma pharmacokinetic evaluation; format: in vivo, human; details: human, plasma, oral, 80 mg, Cycle 2 Day 1; 80 mg BID Arm A (without azole); N=2; mean
REPORTED_ENDPOINT: AUC(0-t) (ng·h/mL)
Please give a number only; it is taken to be in ng·h/mL.

Enquiry: // AUC(0-t) lookup, key: C=C1C[C@@H]2CC[C@H]1[C@@H](C(=O)N1CCC3(CC1)CN(c1ncncc1Oc1ccc(F)cc1C(=O)N(C(C)C)C(C)C)C3)N2
Return: 2900

====

assay: Phase 1/2 clinical study, plasma pharmacokinetic evaluation; assay type: in vivo, human; details: human, plasma, oral, 60 mg, 60 mg BID Arm B, C2D1, N=4, mean; read-out: t1/2 (converted)
REPORTED_ENDPOINT: half-life
Returns: string containing the numeric result and its unit.

Enquiry: Quick check: half-life of C=C1C[C@@H]2CC[C@H]1[C@@H](C(=O)N1CCC3(CC1)CN(c1ncncc1Oc1ccc(F)cc1C(=O)N(C(C)C)C(C)C)C3)N2 [the present compound] ?
Return: 3.19 h

====

assay: Phase 1/2 clinical study, plasma pharmacokinetic evaluation; type: in vivo, human; conditions: human, plasma, oral, 60 mg, Table 15 cut-off; 60 mg BID Arm B, Cycle 1 Day 1, N=6, mean
REPORTED_ENDPOINT: Cmax (ng/mL)
The figure you give is taken to be in ng/mL; do not add the unit.

Enquiry: So what does the record say about Cmax for C=C1C[C@@H]2CC[C@H]1[C@@H](C(=O)N1CCC3(CC1)CN(c1ncncc1Oc1ccc(F)cc1C(=O)N(C(C)C)C(C)C)C3)N2 [the present compound] ?
Return: 1170

====

experiment: Phase 1/2 clinical study, plasma pharmacokinetic evaluation; format: in vivo, human; conditions: human, plasma, oral, 80 mg, Cycle 2 Day 1; 80 mg BID Arm A (without azole); N=2; mean
REPORTED_ENDPOINT: Cmax (ng/mL)
A number alone suffices; assume ng/mL.

Enquiry: Give the measured Cmax of C=C1C[C@@H]2CC[C@H]1[C@@H](C(=O)N1CCC3(CC1)CN(c1ncncc1Oc1ccc(F)cc1C(=O)N(C(C)C)C(C)C)C3)N2 .
Return: 1400

====

experiment: Phase 1/2 clinical study, plasma pharmacokinetic evaluation; type: in vivo, human; details: human, plasma, oral, 300 mg, Cycle 2 Day 1; 300 mg BID Arm B (with azole); N=1 (one patient pending re-assay)
REPORTED_ENDPOINT: AUC(0-t) (ng·h/mL)
Numeric only. Scale: ng·h/mL

Enquiry: Value lookup for AUC(0-t); key = C=C1C[C@@H]2CC[C@H]1[C@@H](C(=O)N1CCC3(CC1)CN(c1ncncc1Oc1ccc(F)cc1C(=O)N(C(C)C)C(C)C)C3)N2
Return: 20500
